Test system: HOP-62 NSCLC
Assay: NCI tumour cell line growth inhibition, 48 h
attribute measured: TGI (µM)
// note: answer is a bare numeric in µM

compound	units symbol	TGI
CN1CCN(Cc2ccc(NC(=O)c3[nH]ncc3Nc3ncnc4[nH]ccc34)cc2)CC1	µM	3.44
CC1=NN(c2ccccc2)C(=O)C12[C@H](c1ccccc1)C2(C#N)C#N (stereo not given in full)	µM	31.1
C=C(C(=O)OC)[C@@H]1CC2OC1C(=O)C(C)CCC/C(C)=C/CC[C@@]2(C)O (stereo not given in full)	µM	41.2
CCCCNS(=O)(=O)c1ccc(-c2ccc3c(c2)-c2ccc(S(=O)(=O)NCCCC)cc2S3(=O)=O)cc1	µM	37.3
COc1cc(Cc2c(C)cc(OC)c3[nH]c4ccccc4c23)cc2c1[nH]c1ccccc12	µM	11

Record summary for Cc1cn(C2CC(COCc3ccccc3)N(CCO[Si](C)(C)C(C)(C)C)O2)c(=O)[nH]c1=O (stereo not given) : reported TGI = 31

Reported TGI ( Oc1c(Cl)cc2cc1-c1cc(cc(Cl)c1O)CCc1c(cc(Cl)c(O)c1Cl)-c1cc(Cl)c(c(Cl)c1O)/C=C\2 ) = 16
